Tested on: C57BL/6 mice, intracerebral ependymoblastoma, median survival T/C
Assay: NCI In Vivo Anticancer Drug Screen. Data for tumor model Ependymoblastoma (intracerebral) in C57BL/6 mice
Conditions: endpoint: median survival time; dose: 32.0 mg/kg/injection; schedule: Q01DX001 (oral); vehicle: Klucel (hydroxypropylcellulose) (HPC); higher = longer survival
Toxic doses and inconclusive results are not listed.
Measure name: T/C

[
  {
    "Compound": "OC(CBr)C(O)C(O)C(O)CBr (stereo not given)",
    "Measure name": "T/C",
    "Result": "96 % of control"
  },
  {
    "Compound": "CC1CCC(NC(=O)N(CCCl)N=O)CC1 (stereo not given)",
    "Measure name": "T/C",
    "Result": "97 % of control"
  },
  {
    "Compound": "O=NN(CCCl)C(=O)NC1CCC(=O)NC1=O (stereo not given)",
    "Measure name": "T/C",
    "Result": "102 % of control"
  },
  {
    "Compound": "COc1cc(NS(C)(=O)=O)ccc1Nc1c2ccccc2nc2ccccc12",
    "Measure name": "T/C",
    "Result": "108 % of control"
  },
  {
    "Compound": "O=NN(CCCl)C(=O)NC1CCCCC1",
    "Measure name": "T/C",
    "Result": "113 % of control"
  }
]

====

Tested on: C57BL/6 mice, intracerebral ependymoblastoma, median survival T/C
Experiment: NCI In Vivo Anticancer Drug Screen. Data for tumor model Ependymoblastoma (intracerebral) in C57BL/6 mice
Settings: endpoint: median survival time; dose: 32.0 mg/kg/injection; schedule: Q01DX005 (oral); vehicle: Klucel (hydroxypropylcellulose) (HPC)
Inconclusive results and toxic doses are left out. Rule for the calls: active = survival T/C of 150% or more; inactive = T/C below 125% in these data.
Outcomes: active, inactive

[
  {
    "Compound": "Cc1[nH]c(=O)[nH]c(=O)c1N(CCF)CCCl",
    "Measured target": "C57BL/6 mice, intracerebral ependymoblastoma, median survival T/C",
    "Discrete label": "inactive"
  },
  {
    "Compound": "O=NN(CCCl)C(=O)NC1CCCCC1",
    "Measured target": "C57BL/6 mice, intracerebral ependymoblastoma, median survival T/C",
    "Discrete label": "active"
  },
  {
    "Compound": "CCN(CC)CCOc1ccc(/C(=C(\\Cl)c2ccccc2)c2ccccc2)cc1",
    "Measured target": "C57BL/6 mice, intracerebral ependymoblastoma, median survival T/C",
    "Discrete label": "inactive"
  },
  {
    "Compound": "OC(CBr)C(O)C(O)C(O)CBr (centres undefined)",
    "Measured target": "C57BL/6 mice, intracerebral ependymoblastoma, median survival T/C",
    "Discrete label": "inactive"
  }
]

====

Tested on: C57BL/6 mice, intracerebral ependymoblastoma, median survival T/C
Assay: NCI In Vivo Anticancer Drug Screen. Data for tumor model Ependymoblastoma (intracerebral) in C57BL/6 mice
Conditions: endpoint: median survival time; dose: 180.0 mg/kg/injection; schedule: Q01DX005 (ip); vehicle: saline with Tween-80; higher = longer survival
Inconclusive results and toxic doses are left out.
Form field: T/C (one value per entry).

[
  {
    "Molecule": "O=c1ccc2ccccc2o1",
    "T/C": "86 % of control"
  },
  {
    "Molecule": "CCOC(=O)CC(SP(=S)(OC)OC)C(=O)OCC (centres undefined)",
    "T/C": "104 % of control"
  },
  {
    "Molecule": "ClC1C(Cl)C(Cl)C(Cl)C(Cl)C1Cl (centres undefined)",
    "T/C": "107 % of control"
  },
  {
    "Molecule": "Nc1ccc(S(N)(=O)=O)cc1",
    "T/C": "96 % of control"
  }
]

Data origin, for the record: PubChem BioAssay AID222
